measured-metric: melting point

The cases that follow already have their melting point on record.
COc1ccc(C(O)c2ccc3c(c2)COC2(CCN(C4CCC4)CC2)O3)cn1 (stereo not shown) :: 78 to 80 °C
OC1(c2ccc3c(c2)COC2(CCN(C4CCC4)CC2)O3)CCCC1 :: 149 to 151 °C
CCOC(=O)C1CCC(Oc2ccc3c(c2)CCC2(CCN(C4CCC4)CC2)O3)CC1 (stereo not shown) :: 236 to 238 °C
CS(=O)(=O)c1ccc(-c2ccc3c(c2)CC2(CCN(C4CCC4)CC2)O3)cc1 :: > 25 °C
O[C@H]1CCN(c2ccc3c(c2)COC2(CCN(C4CCC4)CC2)O3)C1 :: 72.6 to 74.9 °C

query: Would you kindly share the measured melting point for `c1ccc(Nc2ccc3c(c2)COC2(CCN(C4CCC4)CC2)O3)cc1` ?
result: 52 to 57 °C

* * *

- tested-system: human H3 receptor (Homo sapiens, UniProt Q9Y5N1)
- Construct: expressed in transfected cells
- Sequence (Q9Y5N1 whole entry): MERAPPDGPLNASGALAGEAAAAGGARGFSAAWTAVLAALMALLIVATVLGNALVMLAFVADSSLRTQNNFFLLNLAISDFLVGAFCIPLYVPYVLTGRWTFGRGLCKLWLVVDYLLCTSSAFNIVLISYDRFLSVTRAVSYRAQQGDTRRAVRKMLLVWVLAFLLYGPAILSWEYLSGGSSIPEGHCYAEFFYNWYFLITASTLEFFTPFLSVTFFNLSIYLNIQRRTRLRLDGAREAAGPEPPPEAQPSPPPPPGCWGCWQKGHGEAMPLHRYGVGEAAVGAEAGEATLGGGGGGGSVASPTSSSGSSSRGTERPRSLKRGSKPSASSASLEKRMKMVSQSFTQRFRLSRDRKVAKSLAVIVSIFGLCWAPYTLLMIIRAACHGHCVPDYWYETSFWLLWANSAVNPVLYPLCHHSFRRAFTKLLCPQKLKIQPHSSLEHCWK
- procedure-text: Human H3 radioligand binding ([3H]-N-alpha-methylhistamine, SPA)
- run-parameters: read-out: Human H3 Ki
pKi: −log10 of the molar value.
measured-metric: pKi

C(=C\c1ccc2c(c1)CCC1(CCN(C3CCC3)CC1)O2)/c1ccc(OCc2ccccc2)nc1 [Example 537] :: 6.00 to 6.70

query: Item: O=C(C1CC(O)(c2ccc3c(c2)COC2(CCN(C4CCC4)CC2)O3)C1)N1CCCC1 (stereo not shown) [Example 482] Test system: human H3 receptor (Homo sapiens, UniProt Q9Y5N1) Read-out: pKi Value: ?
result: > 6.70

query: Item: [O-][S+]1CC=C(c2ccc3c(c2)COC2(CC[N+]([O-])(C4CCC4)CC2)O3)CC1 (stereo not shown) [Example 472] Test system: human H3 receptor (Homo sapiens, UniProt Q9Y5N1) Read-out: pKi Value: ?
result: > 6.70

query: Item: Cc1c(-c2ccc(=O)[nH]c2)ccc2c1COC1(CCN(C3CCC3)CC1)O2 [Example 552] Test system: human H3 receptor (Homo sapiens, UniProt Q9Y5N1) Read-out: pKi Value: ?
result: > 6.70

* * *

Counter-ions that a name gives are not always drawn.
measured-metric: melting point

O=S(=O)(C1CC1)N1CCC(Oc2ccc3c(c2)CCC2(CCN(C4CCC4)CC2)O3)CC1 :: 233 to 235 °C
COc1ccc(-c2ccc3c(c2)COC2(CCN(C(C)(C)C)CC2)O3)cn1 :: 152 to 154 °C
O=C(Cc1ccncc1)Nc1ccc2c(c1)COC1(CCN(C3CCC3)CC1)O2 :: 170 to 172 °C
COc1ncc(-c2ccc3c(c2)COC2(CCN(C4CCC4)CC2)O3)cc1Cl :: 174 to 175 °C
CC(C)Cn1cc(-c2ccc3c(c2)COC2(CCN(C4CCC4)CC2)O3)ccc1=O (as salt: HCl) :: 182 to 190 °C

query: Would you kindly share the measured melting point for `Cc1nc2ccccc2c(=O)n1-c1ccc2c(c1)COC1(CCN(C3CCC3)CC1)O2` ?
result: 206 to 207 °C

query: Would you kindly share the measured melting point for `O=C(Nc1ccc2c(c1)CCC1(CCN(C3CCC3)CC1)O2)c1ccnnc1` ?
result: 213 to 215 °C

query: Would you kindly share the measured melting point for `OCC1CCN(c2ccc3c(c2)COC2(CCN(C4CCC4)CC2)O3)CC1` ?
result: 88.9 to 91.4 °C

query: Would you kindly share the measured melting point for `CCSc1cc(-c2ccc3c(c2)COC2(CCN(C4CCC4)CC2)O3)c[nH]c1=O` ?
result: 241 to 243 °C
